Source: patent US20250326738A1

# tested-system: full length MALT1 (Homo sapiens)
# Sequence (Q9UDY8 1-824): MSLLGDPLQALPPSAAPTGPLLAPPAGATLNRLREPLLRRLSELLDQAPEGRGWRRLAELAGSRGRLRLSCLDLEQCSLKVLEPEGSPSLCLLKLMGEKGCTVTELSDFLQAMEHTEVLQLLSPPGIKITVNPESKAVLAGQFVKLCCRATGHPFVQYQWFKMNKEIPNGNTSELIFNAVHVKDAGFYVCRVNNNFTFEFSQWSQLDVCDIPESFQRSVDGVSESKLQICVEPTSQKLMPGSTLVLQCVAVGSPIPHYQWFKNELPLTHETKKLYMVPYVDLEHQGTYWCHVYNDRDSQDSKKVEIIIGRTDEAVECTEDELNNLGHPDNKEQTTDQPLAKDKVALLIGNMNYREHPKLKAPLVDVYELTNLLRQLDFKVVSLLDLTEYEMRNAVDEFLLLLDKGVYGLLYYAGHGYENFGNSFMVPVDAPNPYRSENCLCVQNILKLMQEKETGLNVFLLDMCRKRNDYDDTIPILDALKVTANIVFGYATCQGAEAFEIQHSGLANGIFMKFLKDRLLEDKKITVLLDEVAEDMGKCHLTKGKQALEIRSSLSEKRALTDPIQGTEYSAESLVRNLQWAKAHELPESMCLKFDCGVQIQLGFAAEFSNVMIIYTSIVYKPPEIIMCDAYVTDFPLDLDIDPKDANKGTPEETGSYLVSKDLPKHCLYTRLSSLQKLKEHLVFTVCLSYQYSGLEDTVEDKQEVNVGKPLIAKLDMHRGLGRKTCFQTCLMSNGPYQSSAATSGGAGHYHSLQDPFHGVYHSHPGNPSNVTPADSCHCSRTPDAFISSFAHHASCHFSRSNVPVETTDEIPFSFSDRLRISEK
test-readout: IC50

-- ask Which IC50 value belongs to CO[C@@H](C)c1c(Nc2ccc([C@H](N(C)C(=O)[C@H]3CC[C@H](C(=O)O)CC3)C(F)(F)F)cc2)cnn1-c1cccc(C#N)c1 ?
-- reply < 0.1 µM

-- ask What about CN(C(=O)C1CCS(=O)(=O)CC1)[C@@H](c1ccc(Nc2cnn(-c3ccncc3)c2C(F)(F)F)cc1)C(F)(F)F ?
-- reply 0.1 to 1 µM

-- ask What about CC(=O)N1CCC(C(=O)N(C)[C@@H](c2ccc(Nc3cnn(-c4ccccc4)c3C(F)(F)F)cc2)C(F)(F)F)CC1 ?
-- reply 0.1 to 1 µM

-- ask // next record CC(C)n1ncc(Nc2ccc([C@H](N(C)C(=O)C3CCS(=O)(=O)CC3)C(F)(F)F)cc2)c1C(F)(F)F
-- reply 0.1 to 1 µM

-- ask Lookup CN(C(=O)C1CCS(=O)(=O)CC1)[C@@H](c1ccc(Nc2cnn(-c3ccnnc3)c2C(F)(F)F)cc1)C(F)(F)F
-- reply < 0.1 µM

-- ask Same read-out for CO[C@@H](C)c1c(Nc2ccc([C@H](N(C)C(=O)C3CN(C(C)=O)C3)C(F)(F)F)cc2)cnn1-c1ccccc1 ?
-- reply 0.1 to 1 µM

-- ask And then CN(C(=O)[C@H]1CC[C@H](C(=O)O)CC1)[C@@H](c1ccc(Nc2cnn(-c3ccncc3)c2C(F)(F)F)cc1)C(F)(F)F , what is it?
-- reply 0.1 to 1 µM

-- ask Then what about the molecule CC(=O)N1CCC(C(=O)N(C)[C@@H](c2ccc(Nc3cnn(-c4cccnc4)c3C(F)(F)F)cc2)C(F)(F)F)CC1 ?
-- reply < 0.1 µM

-- ask Another: CN(C(=O)[C@H]1CC[C@H](C(=O)O)CC1)[C@@H](c1ccc(Nc2cnn(-c3ccccc3)c2C(F)(F)F)cc1)C(F)(F)F
-- reply < 0.1 µM

-- ask Entry CN(C(=O)C1CCS(=O)(=O)CC1)[C@@H](c1ccc(Nc2cnn(C)c2C(F)(F)F)cc1)C(F)(F)F please
-- reply > 1 µM

-- ask Cool, now CO[C@@H](C)c1c(Nc2ccc([C@H](N(C)C(=O)[C@H]3CC[C@H](C(=O)O)CC3)C(F)(F)F)cc2)cnn1-c1ccccn1
-- reply < 0.1 µM

-- ask Now this one: CN(C(=O)C1CCS(=O)(=O)CC1)[C@@H](c1ccc(Nc2cnn(-c3cccnc3)c2C(F)(F)F)cc1)C(F)(F)F
-- reply < 0.1 µM

-- ask What about this molecule? CO[C@@H](C)c1c(Nc2ccc([C@H](N(C)C(=O)[C@H]3CC[C@H](C(=O)O)CC3)C(F)(F)F)cc2)cnn1-c1cccnc1
-- reply 0.1 to 1 µM

-- ask Same question for CC(=O)N1CCC(C(=O)N(C)[C@@H](c2ccc(Nc3cnn(-c4ccccn4)c3C(F)(F)F)cc2)C(F)(F)F)CC1 please.
-- reply 0.1 to 1 µM

-- ask Let us now turn to CC(=O)N1CC(C(=O)N(C)[C@@H](c2ccc(Nc3cnn(-c4cccnc4)c3C(F)(F)F)cc2)C(F)(F)F)C1
-- reply < 0.1 µM

-- ask Then CN(C(=O)[C@H]1CC[C@H](C(=O)O)CC1)[C@@H](c1ccc(Nc2cnn(-c3cccnn3)c2C(F)(F)F)cc1)C(F)(F)F ?
-- reply < 0.1 µM

-- ask Now try CO[C@@H](C)c1c(Nc2ccc([C@H](N(C)C(=O)C3CCN(C(C)=O)CC3)C(F)(F)F)cc2)cnn1-c1cccnc1 .
-- reply 0.1 to 1 µM

-- ask Repeat for the following molecule: CN(C(=O)C1CCS(=O)(=O)CC1)[C@@H](c1ccc(Nc2cnn(-c3ccncn3)c2C(F)(F)F)cc1)C(F)(F)F
-- reply < 0.1 µM

-- ask Can you handle Cc1ccccc1-n1ncc(Nc2ccc([C@H](N(C)C(=O)C3CCS(=O)(=O)CC3)C(F)(F)F)cc2)c1C(F)(F)F next?
-- reply > 1 µM

-- ask Now consider CN(C(=O)C1CCS(=O)(=O)CC1)[C@@H](c1ccc(Nc2cnn(-c3ccccc3)c2C(F)(F)F)cc1)C(F)(F)F and answer again.
-- reply 0.1 to 1 µM
